assay system: human recombinant COX-2 (Homo sapiens)
Sequence (P35354 18-604): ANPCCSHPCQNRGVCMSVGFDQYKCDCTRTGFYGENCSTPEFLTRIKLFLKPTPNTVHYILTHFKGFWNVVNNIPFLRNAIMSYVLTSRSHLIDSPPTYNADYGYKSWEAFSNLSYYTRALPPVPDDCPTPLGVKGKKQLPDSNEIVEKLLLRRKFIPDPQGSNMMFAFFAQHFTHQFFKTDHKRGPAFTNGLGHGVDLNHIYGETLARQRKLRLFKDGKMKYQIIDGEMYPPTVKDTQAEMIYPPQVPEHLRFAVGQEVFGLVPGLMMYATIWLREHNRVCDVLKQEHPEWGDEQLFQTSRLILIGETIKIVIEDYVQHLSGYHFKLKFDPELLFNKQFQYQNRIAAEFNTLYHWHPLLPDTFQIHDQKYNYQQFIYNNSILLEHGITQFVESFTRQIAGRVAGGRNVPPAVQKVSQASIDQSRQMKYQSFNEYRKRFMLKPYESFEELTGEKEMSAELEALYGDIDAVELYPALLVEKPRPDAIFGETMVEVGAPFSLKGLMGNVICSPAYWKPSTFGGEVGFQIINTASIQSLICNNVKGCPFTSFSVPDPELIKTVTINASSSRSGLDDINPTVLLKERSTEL
run description: Cyclooxygenase assay (oxygen electrode), COX-2
condition summary: estimated from one inhibitor point at 20 µM; 100 µM AA
pIC50: −log10 of the molar value.
measurement label: pIC50

>>> df
                        structure  result
0  Clc1ccc(-c2nnc(C3CCCCC3)o2)cc1  < 4.00

Please look at the following compound next.
input: Which value of pIC50 has been reported for Cc1ccc(CSc2ncn(-c3ccccc3)n2)cc1 in the records?
output: < 4.00

----------
Item-by-item account of IC50
assay system: 15-LOX-2 (Homo sapiens)
Construct: His6 (N); made in house
run description: Lipoxygenase UV-Vis assay, 15-LOX-2
Format: biochemical
condition summary: read-out: 15-LOX-2 IC50

input: Form: Entry = O=C(CCc1nnc(-c2ccccc2)o1)c1ccc(Cl)cc1 [MLS001019001] | System = 15-LOX-2 (Homo sapiens) | IC50 = ____
output: > 100 µM

input: Give IC50 (15-LOX-2 (Homo sapiens)) of the following compound: c1cncc(-c2nnc(C3CCCCC3)o2)c1 [MLS000033229]
output: > 100 µM

----------
assay system: 15-LOX-2 (Homo sapiens, UniProt O15296)
Construct: His6 (N); made in house
run description: Lipoxygenase UV-Vis assay, 15-LOX-2
Type: biochemical
condition summary: read-out: 15-LOX-2 IC50
pIC50: −log10 of the molar value.
measurement label: pIC50

>>> df
                        structure                             assay_system  measurement_label  recorded_number
0  Clc1ccccc1CSc1ncn(-c2ccccc2)n1  15-LOX-2 (Homo sapiens, UniProt O15296)              pIC50             5.05

P. c1ccc(CSc2ncn(-c3ccccc3)n2)cc1
Q. O=C(c1nnc(-c2ccc(Cl)cc2)o1)C1CCCC1
input: Name the one with the greater pIC50 value, either P or Q as given. Answer = label.
output: Q

----------
assay system: 15-LOX-2 (Homo sapiens)
Construct: His6 (N); made in house
Sequence (O15296 1-676): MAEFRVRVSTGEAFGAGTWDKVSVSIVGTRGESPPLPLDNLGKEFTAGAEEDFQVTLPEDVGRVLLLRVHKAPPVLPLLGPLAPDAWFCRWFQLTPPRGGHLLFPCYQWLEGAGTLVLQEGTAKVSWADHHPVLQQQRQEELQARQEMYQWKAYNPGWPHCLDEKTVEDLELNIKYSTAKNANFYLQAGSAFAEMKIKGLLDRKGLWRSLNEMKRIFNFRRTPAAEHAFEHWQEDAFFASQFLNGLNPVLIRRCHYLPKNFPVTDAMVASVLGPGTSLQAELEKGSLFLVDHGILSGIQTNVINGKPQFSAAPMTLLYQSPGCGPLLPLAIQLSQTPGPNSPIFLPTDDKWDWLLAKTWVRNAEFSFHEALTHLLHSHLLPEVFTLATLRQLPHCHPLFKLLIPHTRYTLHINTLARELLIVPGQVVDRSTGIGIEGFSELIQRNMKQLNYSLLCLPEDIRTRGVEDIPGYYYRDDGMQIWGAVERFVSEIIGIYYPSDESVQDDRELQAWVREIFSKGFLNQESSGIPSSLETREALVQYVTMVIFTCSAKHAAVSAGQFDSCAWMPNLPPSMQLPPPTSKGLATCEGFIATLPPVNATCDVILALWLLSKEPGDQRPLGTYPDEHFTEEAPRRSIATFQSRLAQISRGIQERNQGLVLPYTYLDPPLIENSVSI
run description: Lipoxygenase UV-Vis assay, 15-LOX-2
Assay type: biochemical
measurement label: IC50

input: Endpoint output: IC50 of O=[N+]([O-])c1cc(-c2nnc(C34CC5CC(CC(C5)C3)C4)o2)cc([N+](=O)[O-])c1 [MLS000544312] . Value?
output: > 100 µM

----------
assay system: 5-LOX (Homo sapiens)
Sequence (P09917 whole entry): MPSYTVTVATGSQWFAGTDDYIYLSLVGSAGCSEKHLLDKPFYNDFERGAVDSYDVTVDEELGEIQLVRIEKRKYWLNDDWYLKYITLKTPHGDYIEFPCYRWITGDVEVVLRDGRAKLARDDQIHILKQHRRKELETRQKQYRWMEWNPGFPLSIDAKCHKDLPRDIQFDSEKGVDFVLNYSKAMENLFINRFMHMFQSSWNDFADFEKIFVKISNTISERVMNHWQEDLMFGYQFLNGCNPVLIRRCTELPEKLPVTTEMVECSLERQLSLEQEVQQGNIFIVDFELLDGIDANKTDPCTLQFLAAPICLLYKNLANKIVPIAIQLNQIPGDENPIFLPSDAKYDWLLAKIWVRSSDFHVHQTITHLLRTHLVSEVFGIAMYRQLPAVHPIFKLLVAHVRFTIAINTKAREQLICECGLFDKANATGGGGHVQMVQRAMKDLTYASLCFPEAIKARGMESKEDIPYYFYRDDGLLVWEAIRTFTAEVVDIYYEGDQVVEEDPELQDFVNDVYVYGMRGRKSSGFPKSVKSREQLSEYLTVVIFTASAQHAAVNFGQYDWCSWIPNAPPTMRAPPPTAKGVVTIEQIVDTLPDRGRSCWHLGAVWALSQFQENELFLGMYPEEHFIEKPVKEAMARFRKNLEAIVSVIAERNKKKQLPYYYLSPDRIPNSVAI
pIC50: −log10 of the molar value.
measurement label: pIC50

input: I'm curious: which pIC50 was measured for Clc1ccc(-c2nnc(C3CCCCC3)o2)cc1 tested on 5-LOX (Homo sapiens)?
output: < 4.30

----------
assay system: 15-LOX-2 (Homo sapiens, UniProt O15296)
Construct: His6 (N); made in house
run description: Lipoxygenase UV-Vis assay, 15-LOX-2
Format: biochemical
condition summary: 25 µM inhibitor, 15-LOX-2, 10 µM AA; read-out: % Inhibition at 25 μM
measurement label: inhibition at 25 µM (%)

>>> df
                                   compound    measurement_label  recorded_number
0          Clc1ccc(CSc2ncn(-c3ccccc3)n2)cc1  inhibition at 25 µM               94
1     O=C(CCc1nnc(-c2ccccc2)o1)c1ccc(Cl)cc1  inhibition at 25 µM                6
2               Clc1ccc(-c2nnc(C3CC3)o2)cc1  inhibition at 25 µM                4
3  CCC1CCC(c2nnc(-c3ccc(Br)cc3)o2)CC1 (stereo not shown)  inhibition at 25 µM               28
4    Cc1ccc(NC(=O)CSc2ncn(-c3ccccc3)n2)cc1C  inhibition at 25 µM                0
5                 CCCc1nnc(-c2ccc(OC)cc2)o1  inhibition at 25 µM                0
6        O=C(c1nnc(-c2ccc(Cl)cc2)o1)C1CCCC1  inhibition at 25 µM               66
7          Clc1cccc(CSc2ncn(-c3ccccc3)n2)c1  inhibition at 25 µM               65
8            c1ccc(CSc2ncn(-c3ccccc3)n2)cc1  inhibition at 25 µM               56
9              c1cncc(-c2nnc(C3CCCCC3)o2)c1  inhibition at 25 µM                4

I. CCC1CCC(c2nnc(-c3ccc([N+](=O)[O-])cc3)o2)CC1 (stereo not shown)
II. Clc1ccccc1CSc1ncn(-c2ccccc2)n1
III. CC(=O)Nc1ccc(C(=O)CSc2ncn(-c3ccccc3)n2)cc1
IV. O=[N+]([O-])c1cccc(-c2nnc(C34CC5CC(CC(C5)C3)C4)o2)c1
V. O=C(c1nnc(-c2ccccc2)o1)C1CC1
input: Arrange by inhibition at 25 µM, high to low. Answer by writing out the labels in the requested order.
output: II, IV, I, V, III

----------
assay system: 15-LOX-2 (Homo sapiens)
Construct: His6 (N); made in house
run description: Lipoxygenase UV-Vis assay, 15-LOX-2
Format: biochemical
condition summary: read-out: 15-LOX-2 IC50
measurement label: IC50

Example compounds with recorded IC50:
>>> print(df.to_string())
                                   compound    result
0    Cc1ccc(NC(=O)CSc2ncn(-c3ccccc3)n2)cc1C  > 100 µM
1  CC(=O)Nc1ccc(C(=O)CSc2ncn(-c3ccccc3)n2)cc1  > 100 µM

input: Report IC50 for CCC1CCC(c2nnc(-c3ccc([N+](=O)[O-])cc3)o2)CC1 (stereo not drawn) please.
output: > 100 µM
